Biological target: Serine/threonine-protein kinase Nek2 (Homo sapiens)
Sequence (P51955 whole entry): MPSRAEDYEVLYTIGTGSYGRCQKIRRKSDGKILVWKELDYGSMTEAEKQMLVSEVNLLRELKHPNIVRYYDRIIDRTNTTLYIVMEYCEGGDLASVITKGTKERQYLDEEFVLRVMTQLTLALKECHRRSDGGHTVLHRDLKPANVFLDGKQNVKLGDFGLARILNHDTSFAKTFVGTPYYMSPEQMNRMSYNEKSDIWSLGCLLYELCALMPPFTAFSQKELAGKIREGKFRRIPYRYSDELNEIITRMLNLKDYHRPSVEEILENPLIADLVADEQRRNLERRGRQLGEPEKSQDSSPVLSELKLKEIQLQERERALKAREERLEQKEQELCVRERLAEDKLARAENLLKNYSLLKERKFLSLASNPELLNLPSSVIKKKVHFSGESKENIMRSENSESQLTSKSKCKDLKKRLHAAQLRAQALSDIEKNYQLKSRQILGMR
Here the recorded IC50 is given for each entry.

{"columns": ["Chemical smiles", "IC50"],
 "data": [
  ["C#CC(=O)Nc1ccc2c(c1)/C(=C/c1cnc[nH]1)C(=O)N2", "620 nM"],
  ["C#CC(=O)Nc1ccc2c(c1)/C(=C/c1[nH]cnc1C)C(=O)N2", "390 nM"],
  ["O=C1Nc2ccc(C(=O)CCl)cc2/C1=C/c1ccc[nH]1", "< 6 nM"],
  ["C#CC(=O)Nc1ccc2c(c1)/C(=C/c1ccc[nH]1)C(=O)N2", "920 nM"],
  ["O=C1Nc2ccc(C(=O)CCl)cc2/C1=C/c1cnc[nH]1", "60 nM"],
  ["CCc1nc(C)c(/C=C2\\C(=O)Nc3ccc(C(=O)CCl)cc32)[nH]1", "130 nM"]
]}

###

Biological target: Cyclin-dependent kinase 1/cyclin B1 (Homo sapiens, UniProt P06493)
Sequence (P06493 whole entry): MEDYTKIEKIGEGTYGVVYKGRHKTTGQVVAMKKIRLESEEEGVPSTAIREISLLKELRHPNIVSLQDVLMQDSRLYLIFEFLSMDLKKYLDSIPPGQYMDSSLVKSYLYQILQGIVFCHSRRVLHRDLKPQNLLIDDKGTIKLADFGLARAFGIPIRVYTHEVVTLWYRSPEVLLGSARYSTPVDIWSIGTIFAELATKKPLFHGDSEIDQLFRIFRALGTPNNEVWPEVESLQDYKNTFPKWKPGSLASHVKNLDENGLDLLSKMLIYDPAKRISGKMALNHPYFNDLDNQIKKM
Sequence (P14635 whole entry, further chain): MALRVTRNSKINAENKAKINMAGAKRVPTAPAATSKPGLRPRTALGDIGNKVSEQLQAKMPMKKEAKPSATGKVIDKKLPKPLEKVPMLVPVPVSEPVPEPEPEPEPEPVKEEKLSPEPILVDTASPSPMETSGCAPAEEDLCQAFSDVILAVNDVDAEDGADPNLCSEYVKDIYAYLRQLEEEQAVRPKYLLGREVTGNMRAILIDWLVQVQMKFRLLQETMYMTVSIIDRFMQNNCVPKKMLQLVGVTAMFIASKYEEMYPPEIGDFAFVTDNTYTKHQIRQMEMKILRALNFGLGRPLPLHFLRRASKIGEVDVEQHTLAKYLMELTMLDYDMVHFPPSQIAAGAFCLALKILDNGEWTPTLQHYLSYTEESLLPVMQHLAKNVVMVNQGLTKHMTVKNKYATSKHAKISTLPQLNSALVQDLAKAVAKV
Assay: Inhibition of human Cdk1/cyclinB using histone H1 as a substrate and [gamma-32P]ATP
pIC50: −log10 of the molar value.
Measured metric: pIC50

{"columns": ["Chemical smiles", "Data value"],
 "data": [
  ["C#CC(=O)Nc1ccc2c(c1)/C(=C/c1[nH]c(CC)nc1C)C(=O)N2", "< 4.70"],
  ["CCc1nc(C)c(/C=C2\\C(=O)Nc3ccc(C(=O)CCl)cc32)[nH]1", 5.60],
  ["CC#CC(=O)Nc1ccc2c(c1)/C(=C/c1[nH]c(CC)nc1C)C(=O)N2", "< 4.70"],
  ["C#CC(=O)Nc1ccc2c(c1)/C(=C/c1[nH]c(CC)nc1C)C(=O)N2C", "< 4.70"],
  ["C#CC(=O)Nc1ccc2c(c1)/C(=C/c1cnc[nH]1)C(=O)N2", "> 9.00"],
  ["CCc1nc(C)c(/C=C2\\C(=O)Nc3ccc(C(C)=O)cc32)[nH]1", 5.44],
  ["O=C1Nc2ccc(C(=O)CCl)cc2/C1=C/c1cnc[nH]1", "> 9.00"],
  ["C#CC(=O)Nc1ccc2c(c1)/C(=C/c1[nH]cnc1C)C(=O)N2", "> 9.00"],
  ["Cc1nc[nH]c1/C=C1\\C(=O)Nc2ccc(C(=O)CCl)cc21", "> 9.00"],
  ["O=C1Nc2ccc(C(=O)CCl)cc2/C1=C/c1ccc[nH]1", 8.00],
  ["C#CC(=O)Nc1ccc2c(c1)/C(=C/c1ccc[nH]1)C(=O)N2", 7.05]
]}
